test system: SK-MEL-5; test: NCI tumour cell line growth inhibition, 48 h
Active and inactive are the calls of the source. Rule as the data show it: active = GI50 up to about 1.1 µM and inactive = higher.
Labels: active, inactive

- MOLECULE: "CCOC(=O)C1=NN(c2ccc([N+](=O)[O-])cc2)[C@@]2(C)C[C@]3(c4ccccc4)N(c4ccc([N+](=O)[O-])cc4)N=C(C(=O)OCC)N3c3ccccc3N12"
  CAT: "inactive"
- MOLECULE: "CC(=O)OCCC1c2ccccc2-n2nc(-c3ccccc3)c(O)c21 (stereo unspecified)"
  CAT: "inactive"
- MOLECULE: "O[C@@]12Cc3c([nH]c4ccccc34)[C@@H]3Oc4cccc5c4[C@@]31CCN(CC1CC1)[C@@H]2C5"
  CAT: "inactive"
- MOLECULE: "CCC(C(=O)c1cccs1)C(O)(C(F)(F)F)C(F)(F)F (stereo unspecified)"
  CAT: "inactive"
- MOLECULE: "CC(=O)C1=C(C)N2C(=NC3=C(CCc4ccccc43)C2c2ccc(Cl)cc2)S1 (stereo unspecified)"
  CAT: "inactive"
- MOLECULE: "Cc1csc2nc(-c3ccncc3)cn12"
  CAT: "inactive"
- MOLECULE: "Cn1cc(NC(=O)c2cc(NC(=O)CCCCCCCCCCC(=O)Nc3cc(C(=O)Nc4cc(C(=O)NCCC(=N)N)n(C)c4)n(C)c3)cn2C)cc1C(=O)NCCC(=N)N"
  CAT: "inactive"
- MOLECULE: "CNC1=C(C)C(=O)C2=C(C1=O)C(COC(N)=O)C1(OC)C3NC3CN21 (stereo unspecified)"
  CAT: "active"
- MOLECULE: "CC1=C(O)C(=O)C2=C(C1=O)[C@@H]([C@@H](C)C/C=C/C(C)(C)O)CC[C@@H]2C"
  CAT: "inactive"
- MOLECULE: "CCCCN1CCC(O)(c2cc(C(=O)O)[nH]c2-c2cc(C)no2)C1=O (stereo unspecified)"
  CAT: "inactive"
- MOLECULE: "Nn1c(CCCCCCCCc2nnc(COc3c(O)ccc4ccccc34)n2N)nnc1COc1c(O)ccc2ccccc12"
  CAT: "inactive"
- MOLECULE: "O=C1N/C(=N/N=C/c2c[nH]c3ccccc23)N/C1=C\\c1cccs1"
  CAT: "inactive"
- MOLECULE: "CC(=O)Nc1ccc(C(=O)N2N=C(C)/C(=C\\c3c(O)ccc4ccccc34)C2=O)cc1"
  CAT: "inactive"
- MOLECULE: "O=[N+]([O-])c1cc2oc(COc3ccccc3)nc2cc1Cl"
  CAT: "inactive"
- MOLECULE: "COc1cc(O)c2c(c1)C(=O)c1cc(C)cc(O)c1C2=O [PHYSCION]"
  CAT: "inactive"
- MOLECULE: "O=C(O)CCC[C@]1(O)O[C@@]2(CCCC2=O)[C@]2(O)CCC[C@@]21O"
  CAT: "inactive"
- MOLECULE: "COC(C)(C)[C@H](O)C(O)CC(C)[C@@H]1CCC23CC12CCC1[C@@]2(C)CCC(OC(C)=O)C(C)(C)C2CC(OC2OC(COC(C)=O)C(O)C(O)C2O)[C@]13C (stereo partly specified)"
  CAT: "inactive"
- MOLECULE: "Cc1c(F)c(N)c2c(=O)cc(-c3ccc(N)c(F)c3)oc2c1F [AMINOFLAVONE]"
  CAT: "inactive"
- MOLECULE: "O=S(=O)(N/N=C/c1ccc(/C=N/NS(=O)(=O)c2ccccc2)cc1)c1ccccc1"
  CAT: "inactive"
- MOLECULE: "O=C(NCCCN(CCCCN(CCCNC(=O)C(F)(F)F)CCCc1ccccc1)CCCc1ccccc1)C(F)(F)F"
  CAT: "inactive"
- MOLECULE: "CCCCCCCCCCCCCCCCC(=O)NCC(=O)NCC(=O)NC(Cc1ccccc1)C(=O)Oc1ccc([N+](=O)[O-])cc1 (stereo unspecified)"
  CAT: "inactive"
- MOLECULE: "O=c1c2cc(Br)ccc2oc2ccc(Br)cc12"
  CAT: "inactive"
- MOLECULE: "CCOC(=O)C1=C(Nc2ccc(Br)cc2)OCC1=O"
  CAT: "inactive"
- MOLECULE: "Cc1ccc2ccccc2c1CSc1nc(N)nc2c1ncn2CC(C)C"
  CAT: "inactive"
- MOLECULE: "CCN1c2cc(Br)cc3[nH]c(=O)n(c23)CCC1C (stereo unspecified)"
  CAT: "inactive"
- MOLECULE: "COc1ccc(N[S+]([O-])c2ccc(OC)cc2)cc1 (stereo unspecified)"
  CAT: "inactive"
- MOLECULE: "N#CCC(=O)N/N=C1/C(=O)NC(=O)C(=O)C1c1nc2ccccc2s1 (stereo unspecified)"
  CAT: "inactive"
- MOLECULE: "COC(=O)C(=O)C(C(=O)C(=O)Nc1cc([N+](=O)[O-])ccc1[N+](=O)[O-])c1nc2ccc(C(=O)c3ccccc3)cc2nc1O (stereo unspecified)"
  CAT: "inactive"
- MOLECULE: "CC[C@@]1(O)C(=O)OCc2c1cc1n(c2=O)Cc2cc3c(NC(=O)CN)cccc3nc2-1"
  CAT: "active"
- MOLECULE: "CC1(C)COP(=S)(c2ccccn2)O[C@@H]1c1ccccc1 (stereo partly specified)"
  CAT: "inactive"
- MOLECULE: "O=C(C(=O)N1CC2C=CC1CC2)c1c[nH]c2ccccc12 (stereo unspecified)"
  CAT: "inactive"
- MOLECULE: "CCN(CC)C(=S)N/N=C(/C)c1cccc(/C(C)=N\\NC(=S)N(CC)CC)n1"
  CAT: "inactive"
- MOLECULE: "CC(=O)C1=C(C)N(c2ccccc2)C2(O)C3=C(C(=O)c4ccccc4C3=O)C(O)=CC12Cl (stereo unspecified)"
  CAT: "inactive"
- MOLECULE: "NS(=O)(=O)c1ccc(NS(=O)(=O)c2ccc(NC(=O)N(c3ccccc3)c3ccccc3)cc2)cc1"
  CAT: "inactive"
- MOLECULE: "COC1(OC)CC2CCCCC2=C(C)N1S(=O)(=O)c1ccccc1 (stereo unspecified)"
  CAT: "inactive"
- MOLECULE: "CCCCCCCCCCCNC=O"
  CAT: "inactive"
